These entries and their values trace back to patent US5618812A.

For each entry below, report its pIC50 value.
Biological target: CCK-B (Cavia porcellus, UniProt H0VZC5)
Construct: guinea pig brain (CCK-B); from tissue; host or cells: guinea pig brain
Sequence (H0VZC5 1-426): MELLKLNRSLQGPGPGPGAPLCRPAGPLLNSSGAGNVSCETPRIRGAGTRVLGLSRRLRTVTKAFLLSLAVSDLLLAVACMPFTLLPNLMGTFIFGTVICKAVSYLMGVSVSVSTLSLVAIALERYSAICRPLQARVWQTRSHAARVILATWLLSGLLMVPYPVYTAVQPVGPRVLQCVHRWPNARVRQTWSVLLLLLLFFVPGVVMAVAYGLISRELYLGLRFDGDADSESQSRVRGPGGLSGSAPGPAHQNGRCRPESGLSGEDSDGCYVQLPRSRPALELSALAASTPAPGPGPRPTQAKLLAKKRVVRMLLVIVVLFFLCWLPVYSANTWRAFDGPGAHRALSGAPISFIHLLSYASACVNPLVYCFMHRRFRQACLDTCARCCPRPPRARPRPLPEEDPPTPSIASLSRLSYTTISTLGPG
Test: displacement of specific 125I-CCK from guinea pig brain (CCK-B receptor binding)
Details: CCK RECEPTOR BINDING RESULTS IC50 125I-CCK Brain
Where a name gives a salt, the structure may show the parent alone.
pIC50 is defined as minus the log10 of a concentration measured in mol/L.

Query: # get_value(readout='pIC50', item= CN1C(=O)C(NC(=O)Nc2cccc(F)c2)N=C(N2CC3CCC(CC3)C2)c2ccccc21 (racemic) [Example 35] )
Reply: 9.09

Query: Give its pIC50 value. Item: Cc1ccc(NC(=O)NC2N=C(N3CC4CCC(CC4)C3)c3ccccc3N(C)C2=O)cc1F (single isomer, unassigned; (+)) [Example 46, Hydrochloride]
Reply: 7.70

Query: Fill blank: measured pIC50 of the compound CN1C(=O)C(NC(=O)Nc2cccc(I)c2)N=C(N2CC3CCC(CC3)C2)c2ccccc21 (racemic) [Example 47] is ____.
Reply: 9.00

Query: Endpoint output: pIC50 of CN1C(=O)C(NC(=O)Nc2ccc3c(c2)CCC3)N=C(N2CC3CCC(CC3)C2)c2ccccc21 (single isomer, unassigned; (-)) . Value?
Reply: 9.43

Query: Given the compound Cc1cc(NC(=O)NC2N=C(N3CC4CCC(CC4)C3)c3ccccc3N(C)C2=O)ccc1F (racemic) [Example 52] , what is its reported pIC50?
Reply: 9.60

Query: Consider the compound shown here: CN1C(=O)C(NC(=O)Nc2cccc(I)c2)N=C(N2CC3CCC(CC3)C2)c2ccccc21 (single isomer, unassigned; (-)) [Example 48] What is its recorded pIC50?
Reply: 8.95

Query: Requested read-out: pIC50. Entry: CN1C(=O)C(NC(=O)c2cc3ccccc3[nH]2)N=C(N2CC3CCC(CC3)C2)c2ccccc21 (single isomer, unassigned; (-)) [Example 88, hydrochloride]
Reply: 7.18

Query: Query (compound): CN1C(=O)C(NC(=O)Nc2cccc(C(F)(F)F)c2)N=C(N2CC3CCC(CC3)C2)c2ccccc21 (single isomer, unassigned; (-)) [Example 55, Hydrochloride] ; field requested: pIC50
Reply: 9.14

Query: Item under review: Cc1cccc(NC(=O)NC2N=C(N3CC4CCC(CC4)C3)c3ccccc3N(C)C2=O)c1 (single isomer, unassigned; (+)) [Example 34, Hydrochloride] . Reported pIC50?
Reply: 7.57

Query: // returns reported pIC50 for input Cc1cc(NC(=O)NC2N=C(N3CC4CCC(CC4)C3)c3ccccc3N(C)C2=O)ccc1F (single isomer, unassigned; (+)) [Example 54, Hydrochloride]
Reply: 7.17

Query: pIC50 lookup needed for Cc1ccc(NC(=O)NC2N=C(N3CC4CCC(CC4)C3)c3ccccc3N(C)C2=O)cc1F (racemic) [Example 44] , thanks.
Reply: 9.28

Query: I am curious: what pIC50 value has been reported for CN1C(=O)C(NC(=O)Nc2cccc(I)c2)N=C(N2CC3CCC(CC3)C2)c2ccccc21 (single isomer, unassigned; (+)) [Example 49] ?
Reply: 7.08

Query: // pIC50 lookup, key: Cc1ccc(NC(=O)NC2N=C(N3CC4CCC(CC4)C3)c3ccccc3N(C)C2=O)cc1F (single isomer, unassigned; (-)) [Example 45, Hydrochloride]
Reply: 9.38

Query: Return reported pIC50; argument: CN1C(=O)C(NC(=O)Nc2cccc(F)c2)N=C(N2CC3CCC(CC3)C2)c2ccccc21 (single isomer, unassigned; (-)) [Example 36, Hydrochloride]
Reply: 9.49

Query: Form field: reported pIC50 of CCCN1C(=O)C(NC(=O)Nc2cccc(C)c2)N=C(N2CC3CCC(C2)N3C)c2ccccc21 (racemic)
Reply: 7.32

Query: I'd like to know its pIC50. The compound in question is Cc1cccc(NC(=O)NC2N=C(N3CC4CCC(CC4)C3)c3ccccc3N(C)C2=O)c1 (single isomer, unassigned; (-)) [Example 33, Hydrochloride]
Reply: 10.00

Query: Requested read-out: pIC50. Entry: Cc1cc(NC(=O)NC2N=C(N3CC4CCC(CC4)C3)c3ccccc3N(C)C2=O)ccc1F (single isomer, unassigned; (-)) [Example 53, Hydrochloride]
Reply: 9.74

Query: // returns reported pIC50 for input CN1C(=O)C(NC(=O)Nc2ccccc2)N=C(N2CC3CCC(CC3)C2)c2ccccc21 (racemic)
Reply: 8.41

Query: Which pIC50 is reported for this compound? Cc1cccc(NC(=O)NC2N=C(N3CC4CCC(CC4)C3)c3ccccc3N(C)C2=O)c1 (racemic) [Example 31]
Reply: 9.28

Query: # lookup: pIC50 of CN1C(=O)C(NC(=O)Nc2cccc(F)c2)N=C(N2CC3CCC(CC3)C2)c2ccccc21 (single isomer, unassigned; (+)) [Example 37, Hydrochloride]
Reply: 6.84

Query: Recorded pIC50 of CN1C(=O)C(NC(=O)Nc2cccc(C(F)(F)F)c2)N=C(N2CC3CCC(CC3)C2)c2ccccc21 (racemic) [Example 42] , please.
Reply: 8.75
